Cited source: patent US4570006A

Here's a batch of molecules along with measured IC50 for Plasmin (Homo sapiens, UniProt P00747).

{"molecule": "COC(=O)c1cc(C(=N)N)ccc1OC(=O)[C@H]1CC[C@H](CN)CC1", "IC50": "> 10 µM"}
{"molecule": "CC(=O)Oc1ccc(C(=N)N)cc1[N+](=O)[O-] [Compound 2, 4-amidino-2-nitrophenyl acetate]", "IC50": "> 10 µM"}
{"molecule": "N=C(N)c1ccc(OC(=O)c2ccccc2)c(C(=O)O)c1 [Compound 24, 4-amidino-2-carboxyphenyl benzoate]", "IC50": "> 10 µM"}

* * *

Here's a batch of compounds along with measured pIC50 for Plasmin (Homo sapiens, UniProt P00747).
pIC50: −log10 of the molar value.

{"compound": "N=C(N)c1ccc(OC(=O)CCCc2ccccc2)c(C(=O)c2ccccc2)c1", "testSystem": "Plasmin (Homo sapiens, UniProt P00747)", "comparativeSign": "<", "pIC50": 5.00}
{"compound": "Cc1cc(OC(=O)c2ccccc2)ccc1C(=N)N [Compound 22, 4-amidino-3-methylphenyl benzoate]", "testSystem": "Plasmin (Homo sapiens, UniProt P00747)", "comparativeSign": "<", "pIC50": 5.00}
{"compound": "N=C(N)c1cc(Br)c(OC(=O)c2ccc3c(c2)OCO3)c(Br)c1", "testSystem": "Plasmin (Homo sapiens, UniProt P00747)", "comparativeSign": "<", "pIC50": 5.00}
{"compound": "CC(C)(C)c1ccc(C(=O)Oc2ccc(C(=N)N)cc2[N+](=O)[O-])cc1", "testSystem": "Plasmin (Homo sapiens, UniProt P00747)", "comparativeSign": "=", "pIC50": 6.40}
{"compound": "N=C(N)c1ccc(OC(=O)c2ccccc2)c(NC(=O)c2ccccc2)c1 [Compound 30, 4-amidino-2-benzoylaminophenyl benzoate]", "testSystem": "Plasmin (Homo sapiens, UniProt P00747)", "comparativeSign": "=", "pIC50": 6.40}
{"compound": "COc1cc(C(=N)N)ccc1OC(=O)[C@H]1CC[C@H](CNC(=O)OCc2ccccc2)CC1", "testSystem": "Plasmin (Homo sapiens, UniProt P00747)", "comparativeSign": "=", "pIC50": 6.52}
{"compound": "N=C(N)c1ccc(OC(=O)c2ccc(CN)cc2)c([N+](=O)[O-])c1", "testSystem": "Plasmin (Homo sapiens, UniProt P00747)", "comparativeSign": "=", "pIC50": 5.52}
{"compound": "Cc1ccc(C(=O)Oc2ccc(C(=N)N)cc2[N+](=O)[O-])cc1", "testSystem": "Plasmin (Homo sapiens, UniProt P00747)", "comparativeSign": "=", "pIC50": 6.40}
{"compound": "CC(=O)Nc1ccc(C(=O)Oc2ccc(C(=N)N)cc2C(=O)c2ccccc2)cc1", "testSystem": "Plasmin (Homo sapiens, UniProt P00747)", "comparativeSign": "=", "pIC50": 6.52}
{"compound": "N=C(N)c1ccc(OC(=O)[C@H]2CC[C@H](CN)CC2)c(C(=O)c2ccccc2)c1", "testSystem": "Plasmin (Homo sapiens, UniProt P00747)", "comparativeSign": "<", "pIC50": 5.00}

* * *

Here's a batch of compounds along with measured pIC50 for Trypsin (Bos taurus).
pIC50: −log10 of the molar value.

{"compound": "N=C(N)c1cc(Br)c(OC(=O)c2ccc3c(c2)OCO3)c(Br)c1", "pIC50": "< 5.00"}
{"compound": "Cc1cc(OC(=O)c2ccccc2)ccc1C(=N)N [Compound 22, 4-amidino-3-methylphenyl benzoate]", "pIC50": "< 5.00"}
{"compound": "COC(=O)c1cc(C(=N)N)ccc1OC(=O)[C@H]1CC[C@H](CN)CC1", "pIC50": "< 5.00"}
{"compound": "N=C(N)c1ccc(OC(=O)CCCCCN)c(C(=O)c2ccccc2)c1", "pIC50": "< 5.00"}
{"compound": "CC(=O)Oc1ccc(C(=N)N)cc1C(=O)c1ccccc1 [Compound 1, 4-amidino-2-benzoylphenyl acetate]", "pIC50": "< 5.00"}
{"compound": "CC(=O)Oc1ccc(C(=N)N)cc1[N+](=O)[O-] [Compound 2, 4-amidino-2-nitrophenyl acetate]", "pIC50": "< 5.00"}
{"compound": "N=C(N)c1ccc(OC(=O)c2ccc(CN)cc2)c([N+](=O)[O-])c1", "pIC50": 6.30}
{"compound": "N=C(N)c1ccc(OC(=O)c2ccccc2)c(S(=O)(=O)O)c1", "pIC50": 5.00}
{"compound": "Cc1ccc(C(=O)Oc2ccc(C(=N)N)cc2[N+](=O)[O-])cc1", "pIC50": 7.30}
{"compound": "N=C(N)c1ccc(OC(=O)c2ccc(O)cc2)c(C(=O)c2ccccc2)c1", "pIC50": 7.30}
{"compound": "N=C(N)c1ccc(OC(=O)CCCc2ccccc2)c(C(=O)c2ccccc2)c1", "pIC50": "< 5.00"}

* * *

- Test system: complement
- assayOverview: Inhibition of complement mediated hemolysis
- Assay type: cell-based
- assayConditions: compound at 1 × 10^-6
measure: Inhibition of complement mediated hemolysis (%)

{"compound": "CC(C)(C)c1ccc(C(=O)Oc2ccc(C(=N)N)cc2C(=O)c2ccccc2)cc1", "observedResult": 96.8}
{"compound": "N=C(N)Nc1ccc(C(=O)Oc2ccc(C(=N)N)cc2C(=O)c2ccccc2)cc1", "observedResult": 86.5}
{"compound": "CCCCOc1ccc(C(=O)Oc2ccc(C(=N)N)cc2[N+](=O)[O-])cc1", "observedResult": 29.0}
{"compound": "N=C(N)c1ccc(OC(=O)C2CC2)c(C(=O)c2ccccc2)c1", "observedResult": 22.0}
{"compound": "N=C(N)c1ccc(OC(=O)c2ccccc2)c(Cl)c1 [Compound 26, 4-amidino-2-chlorophenyl benzoate]", "observedResult": 61.6}
{"compound": "N=C(N)c1ccc(OC(=O)CCCc2ccccc2)c(C(=O)c2ccccc2)c1", "observedResult": 0}
{"compound": "N=C(N)c1ccc(OC(=O)C=Cc2ccccc2)c([N+](=O)[O-])c1", "observedResult": 53.7}
{"compound": "N=C(N)c1ccc(OC(=O)c2ccc(S(N)(=O)=O)cc2)c(C(=O)c2ccccc2)c1", "observedResult": 96.9}
{"compound": "COc1ccc(C(=O)Oc2ccc(C(=N)N)cc2C(=O)c2ccccc2)cc1", "observedResult": 70.0}
{"compound": "N#Cc1ccc(C(=O)Oc2ccc(C(=N)N)cc2C(=O)c2ccccc2)cc1", "observedResult": 12.9}
{"compound": "N=C(N)c1ccc(OC(=O)c2ccccc2)c(S(=O)(=O)O)c1", "observedResult": 22.8}

* * *

Here's a batch of compounds along with measured IC50 for Cls (Homo sapiens, UniProt P09871).
measure: IC50 (µM)

{"compound": "N=C(N)c1ccc(OC(=O)CCCc2ccccc2)c(C(=O)c2ccccc2)c1 [Compound 33]", "measure": "IC50", "comparativeSign": ">", "observedResult": 10}
{"compound": "COc1cc(C(=N)N)ccc1OC(=O)CCCCCNC(=N)N [Compound 14]", "measure": "IC50", "comparativeSign": ">", "observedResult": 10}
{"compound": "COc1cc(C(=N)N)ccc1OC(=O)CCCc1ccc([N+](=O)[O-])cc1 [Compound 82]", "measure": "IC50", "comparativeSign": ">", "observedResult": 10}
{"compound": "COc1cc(C(=N)N)ccc1OC(=O)c1ccc(NC(=N)N)cc1Cl [Compound 76]", "measure": "IC50", "comparativeSign": ">", "observedResult": 10}
{"compound": "N=C(N)c1ccc(OC(=O)c2ccccc2)c(Cl)c1 [Compound 26, 4-amidino-2-chlorophenyl benzoate]", "measure": "IC50", "comparativeSign": "=", "observedResult": 0.3}
{"compound": "COc1cc(C(=N)N)ccc1OC(=O)[C@H]1CC[C@H](CNC(=O)OCc2ccccc2)CC1 [Compound 16]", "measure": "IC50", "comparativeSign": "=", "observedResult": 0.8}
{"compound": "N=C(N)Nc1ccc(C(=O)Oc2ccc(C(=N)N)cc2C(=O)c2ccccc2)cc1 [Compound 69]", "measure": "IC50", "comparativeSign": "=", "observedResult": 0.4}
{"compound": "COc1ccc(C(=O)Oc2ccc(C(=N)N)cc2C(=O)c2ccccc2)cc1 [Compound 42]", "measure": "IC50", "comparativeSign": "=", "observedResult": 0.04}
{"compound": "N=C(N)c1ccc(OC(=O)c2ccc(C=O)cc2)c(C(=O)c2ccccc2)c1 [Compound 52]", "measure": "IC50", "comparativeSign": "=", "observedResult": 3}
{"compound": "COc1cc(C(=N)N)ccc1OC(=O)c1ccccc1 [Compound 23, 4-amidino-2-methoxyphenyl benzoate]", "measure": "IC50", "comparativeSign": "=", "observedResult": 5}
{"compound": "N=C(N)c1ccc(OC(=O)[C@H]2CC[C@H](CN)CC2)c(C(=O)c2ccccc2)c1 [Compound 21]", "measure": "IC50", "comparativeSign": "=", "observedResult": 4}
{"compound": "N#Cc1ccc(C(=O)Oc2ccc(C(=N)N)cc2C(=O)c2ccccc2)cc1 [Compound 83]", "measure": "IC50", "comparativeSign": "=", "observedResult": 4}
{"compound": "COc1cc(C(=N)N)ccc1OC(=O)c1ccc([N+](=O)[O-])c(C)c1 [Compound 80]", "measure": "IC50", "comparativeSign": ">", "observedResult": 10}
{"compound": "N=C(N)c1ccc(OC(=O)CCCCCN)c(C(=O)c2ccccc2)c1 [Compound 13]", "measure": "IC50", "comparativeSign": ">", "observedResult": 10}
{"compound": "COC(=O)c1ccc(C(=O)Oc2ccc(C(=N)N)cc2C(=O)c2ccccc2)cc1 [Compound 50]", "measure": "IC50", "comparativeSign": ">", "observedResult": 10}
{"compound": "COc1cc(C(=N)N)ccc1OC(=O)/C=C/c1ccccc1 [Compound 31, 4-amidino-2-methoxyphenyl cinnamate]", "measure": "IC50", "comparativeSign": "=", "observedResult": 3}
{"compound": "COc1cc(C(=N)N)ccc1OC(=O)c1ccc(NC(=N)N)c(C)c1 [Compound 75]", "measure": "IC50", "comparativeSign": "=", "observedResult": 3}
{"compound": "N=C(N)c1ccc(OC(=O)C=Cc2ccc3c(c2)OCO3)c([N+](=O)[O-])c1 [Compound 48]", "measure": "IC50", "comparativeSign": "=", "observedResult": 3}
{"compound": "CN(C)c1ccc(C(=O)Oc2ccc(C(=N)N)cc2C(=O)c2ccccc2)cc1 [Compound 66]", "measure": "IC50", "comparativeSign": "=", "observedResult": 0.04}
